All values here come from patent US20260285866A1.

- Measured target: Human TRPML1 (Homo sapiens, UniProt Q9GZU1, L15A/L16A/L577A/L578A)
- Sequence (Q9GZU1 whole entry L15A/L16A/L577A/L578A): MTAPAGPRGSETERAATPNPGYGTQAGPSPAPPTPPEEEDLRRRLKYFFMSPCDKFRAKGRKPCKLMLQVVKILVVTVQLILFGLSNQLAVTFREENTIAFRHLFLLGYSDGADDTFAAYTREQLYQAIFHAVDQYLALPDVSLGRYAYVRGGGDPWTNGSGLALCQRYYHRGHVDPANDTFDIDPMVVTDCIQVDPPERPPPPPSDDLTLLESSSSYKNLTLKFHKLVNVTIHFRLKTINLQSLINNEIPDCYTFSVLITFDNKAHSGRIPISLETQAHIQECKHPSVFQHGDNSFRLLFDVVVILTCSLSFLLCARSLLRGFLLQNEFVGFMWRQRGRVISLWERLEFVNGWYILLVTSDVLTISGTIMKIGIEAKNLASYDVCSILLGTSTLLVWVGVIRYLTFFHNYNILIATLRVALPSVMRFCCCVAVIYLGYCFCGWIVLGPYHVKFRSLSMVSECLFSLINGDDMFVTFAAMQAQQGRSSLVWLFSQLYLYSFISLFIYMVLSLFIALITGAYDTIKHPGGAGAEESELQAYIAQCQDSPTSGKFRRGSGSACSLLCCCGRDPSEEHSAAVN
- Experiment summary: Fluorescent TRPML1 assay (Fluo4-AM, HEK-293 Trex cells expressing hTRPML1)
- Condition summary: fluorescent calcium assay, doxycycline-induced hTRPML1
pEC50: −log10 of the molar value.
Experimental endpoint: pEC50

Exercise: State recorded pEC50 with Human TRPML1 (Homo sapiens, UniProt Q9GZU1, L15A/L16A/L577A/L578A), entry C[C@@H]1CN(c2ncnc3c2c(-c2ccccc2)cn3-c2cc(F)ccn2)[C@@H](C)CN1C(=O)C(C)(C)O [Compound 106] , no comment.
Solution: 6.30 to 7.00

Exercise: Find the measured pEC50 of C[C@@H]1CN(c2ncnc3c2c(-c2ccncc2F)cn3-c2cc(C#N)ccn2)[C@@H](C)CN1C(=O)C(C)(C)O [Compound 146] with Human TRPML1 (Homo sapiens, UniProt Q9GZU1, L15A/L16A/L577A/L578A) as test system.
Solution: 6.30 to 7.00

Exercise: Consider the compound C[C@H]1CN(C(=O)C(C)(C)O)[C@H](CO)CN1c1ncnc2c1c(-c1ccccc1F)cn2-c1cc(C#N)ccn1 [Compound 168] tested on Human TRPML1 (Homo sapiens, UniProt Q9GZU1, L15A/L16A/L577A/L578A); state its pEC50.
Solution: 5.70 to 6.30

Exercise: Please indicate recorded pEC50 of COC1(C(=O)N2C[C@H](C)N(c3ncnc4c3c(-c3ccccc3F)cn4-c3cc(C#N)ccn3)C[C@H]2C)COC1 [Compound 166] measured with Human TRPML1 (Homo sapiens, UniProt Q9GZU1, L15A/L16A/L577A/L578A).
Solution: > 7.00

Exercise: Please indicate recorded pEC50 of CC(C)(O)C(=O)N1CCN(c2ncnc3c2c(-c2ccccc2)cn3-c2cc(C#N)ccn2)[C@@H](C2CC2)C1 [Compound 113] measured with Human TRPML1 (Homo sapiens, UniProt Q9GZU1, L15A/L16A/L577A/L578A).
Solution: 5.70 to 6.30

Exercise: // fetch pEC50 for CC(C)[C@H]1CN(C(=O)C(C)(C)O)CCN1c1ncnc2c1c(-c1ccccc1)cn2-c1cc(C#N)ccn1 [Compound 112] ; system: Human TRPML1 (Homo sapiens, UniProt Q9GZU1, L15A/L16A/L577A/L578A)
Solution: 5.70 to 6.30

Exercise: Give pEC50 for this entry on Human TRPML1 (Homo sapiens, UniProt Q9GZU1, L15A/L16A/L577A/L578A): C[C@@H]1CN(c2ncnc3c2c(-c2ccncc2)cn3-c2cc(C#N)ccn2)[C@@H](C)CN1C(=O)C(C)(C)O [Compound 125]
Solution: 6.30 to 7.00

Exercise: Fill in pEC50 for C[C@H]1CN(C(=O)C2(O)CCC2)CCN1c1ncnc2c1c(-c1ccccc1F)cn2-c1cc(C#N)ccn1 [Compound 117] tested with Human TRPML1 (Homo sapiens, UniProt Q9GZU1, L15A/L16A/L577A/L578A).
Solution: 5.70 to 6.30

Exercise: Specify the recorded pEC50 for C[C@@H]1CN(c2ncnc3c2c(-c2ccncc2)cn3-c2cc(F)ccn2)[C@@H](C)CN1C(=O)C(C)(C)O [Compound 136] , system: Human TRPML1 (Homo sapiens, UniProt Q9GZU1, L15A/L16A/L577A/L578A).
Solution: 5.70 to 6.30

Exercise: Find pEC50 for C[C@@H]1CN(c2nccc3c2c(-c2ccncc2)cn3-c2cc(F)cc(F)c2)[C@@H](C)CN1C(=O)C(C)(C)O [Compound 143] on Human TRPML1 (Homo sapiens, UniProt Q9GZU1, L15A/L16A/L577A/L578A) and write it down.
Solution: < 5.70

Exercise: Return reported pEC50 for target or system Human TRPML1 (Homo sapiens, UniProt Q9GZU1, L15A/L16A/L577A/L578A), item CC(C)(O)C(=O)N1CCN(c2ncnc3c2c(-c2ccccc2F)cn3-c2cc(C#N)ccn2)CC1 [Compound 124] .
Solution: 5.70 to 6.30

Exercise: Please report the measured pEC50 for C[C@@H]1CN(c2ncnc3c2c(-n2cccn2)cn3-c2cc(C#N)ccn2)[C@@H](C)CN1C(=O)C(C)(C)O [Compound 133] tested on Human TRPML1 (Homo sapiens, UniProt Q9GZU1, L15A/L16A/L577A/L578A).
Solution: 5.70 to 6.30

Exercise: Param request: pEC50 | system Human TRPML1 (Homo sapiens, UniProt Q9GZU1, L15A/L16A/L577A/L578A) | item C[C@@H]1CN(c2ncnc3c2c(-c2ccccc2F)cn3-c2cc(C#N)ccn2)[C@@H](C)CN1C(=O)C1(O)CCN(C)CC1 [Compound 123]
Solution: < 5.70

Exercise: Provide pEC50, recorded with Human TRPML1 (Homo sapiens, UniProt Q9GZU1, L15A/L16A/L577A/L578A), of C[C@@H]1CN(c2ncnc3c2c(-c2ccccc2F)cn3-c2cc(C#N)ccn2)[C@@H](C)CN1C(=O)C1(O)CCCCC1 [Compound 122]
Solution: > 7.00

----------
Please respond with reported pEC50 for every item in the list.
- Measured target: Human TRPML1 (Homo sapiens, UniProt Q9GZU1, L15A/L16A/L577A/L578A)
- Experiment summary: Fluorescent TRPML1 assay (Fluo4-AM, HEK-293 Trex cells expressing hTRPML1)
- Condition summary: fluorescent calcium assay, doxycycline-induced hTRPML1
pEC50: −log10 of the molar value.

Exercise: Respond only with pEC50 recorded for `C[C@@H]1CN(c2ncnc3c2c(N2CCC2)cn3-c2cc(C#N)ccn2)[C@@H](C)CN1C(=O)C(C)(C)O`
Solution: 6.30 to 7.00

Exercise: Could you please provide reported pEC50 for `C[C@@H]1CN(c2ncnc3c2c(-c2ccncc2)cn3-c2cccc(F)c2)[C@@H](C)CN1C(=O)C(C)(C)O` ? Thanks!
Solution: < 5.70

Exercise: Quote pEC50 reported for C[C@@H]1CN(c2ncnc3c2c(-c2ccccc2F)cn3-c2cc(C#N)ccn2)[C@@H](C)CN1C(=O)C(C)(O)CO (stereo partly drawn) please.
Solution: 6.30 to 7.00

Exercise: Please supply the value of reported pEC50 for the item `C[C@@H]1CN(c2ncnc3c2c(-c2ccccc2F)cn3-c2cc(OC(F)(F)F)ccn2)[C@@H](C)CN1C(=O)C(C)(C)O`
Solution: 6.30 to 7.00

Exercise: Write down pEC50 measured for item `C[C@@H]1CN(c2ncnc3c2c(-c2ccncc2)cn3-c2cccc(C#N)c2)[C@@H](C)CN1C(=O)C(C)(C)O`
Solution: 5.70 to 6.30

Exercise: Check the records and state pEC50 for `C[C@@H]1CN(c2ncnc3c2c(-c2ccccc2)cn3-c2cc(C#N)ccn2)[C@@H](C)CN1C(=O)C1(O)CN(C)C1`
Solution: 5.70 to 6.30

Exercise: Provide pEC50 value for the following compound: `C[C@@H]1CN(c2nccc3c2c(-c2ccncc2)cn3-c2cccc(C#N)c2)[C@@H](C)CN1C(=O)C(C)(C)O`
Solution: < 5.70

Exercise: Give pEC50 for the following compound: `C[C@@H]1CN(c2ncnc3c2c(-c2ccccc2F)cn3-c2cc(C#N)ccn2)[C@@H](C)CN1C(=O)C1(O)CC1`
Solution: < 5.70

Exercise: Hello, please tell me recorded pEC50 for this one: `C[C@@H]1CN(c2ncnc3c2c(-c2ccccc2)cn3-c2cc(C#N)ccn2)[C@@H](C)CN1C(=O)C(O)(C(F)(F)F)C(F)(F)F`
Solution: > 7.00

Exercise: Provide pEC50 value for the following compound: `C[C@@H]1CN(c2ncnc3c2c(-n2ccnc2)cn3-c2cc(C#N)ccn2)[C@@H](C)CN1C(=O)C(C)(C)O`
Solution: < 5.70

Exercise: State, in one line, measured pEC50 of `C[C@@H]1CN(c2ncnc3c2c(-c2ccccc2)cn3-c2cc(C#N)ccn2)[C@@H](C)CN1C(=O)CC(O)(C(F)(F)F)C(F)(F)F`
Solution: 6.30 to 7.00

Exercise: Dear colleague, please send me the reported pEC50 for `C[C@@H]1CN(c2ncnc3c2c(-c2ccccc2F)cn3-c2cc(C#N)ccn2)[C@@H](C)CN1C(=O)CC(C)(C)O` when you can.
Solution: 6.30 to 7.00

----------
- Measured target: Human TRPML3 (Homo sapiens)
- Sequence (Q8TDD5 whole entry): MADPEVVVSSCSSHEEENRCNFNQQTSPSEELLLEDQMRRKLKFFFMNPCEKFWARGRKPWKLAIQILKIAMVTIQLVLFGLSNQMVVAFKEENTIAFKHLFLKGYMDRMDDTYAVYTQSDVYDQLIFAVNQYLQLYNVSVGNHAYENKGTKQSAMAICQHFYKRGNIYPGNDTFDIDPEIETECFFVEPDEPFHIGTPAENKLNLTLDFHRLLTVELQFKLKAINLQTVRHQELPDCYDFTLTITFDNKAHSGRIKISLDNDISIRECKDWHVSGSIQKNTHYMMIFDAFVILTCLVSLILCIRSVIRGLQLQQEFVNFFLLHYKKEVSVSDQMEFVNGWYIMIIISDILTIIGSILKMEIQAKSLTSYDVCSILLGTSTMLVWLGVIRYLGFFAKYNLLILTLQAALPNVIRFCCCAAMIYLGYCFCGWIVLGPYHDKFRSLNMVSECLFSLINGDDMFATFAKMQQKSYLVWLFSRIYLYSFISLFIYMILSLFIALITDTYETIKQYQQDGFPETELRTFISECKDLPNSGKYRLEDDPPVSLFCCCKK
- Experiment summary: Fluorescent TRPML3 assay (as for TRPML1)
- Condition summary: fluorescent calcium assay as for TRPML1, TRPML3 subtype
pEC50: −log10 of the molar value.
Give pEC50 for every item shown.

Exercise: Report pEC50 for `C[C@H]1CN(C(=O)C(C)(C)O)[C@H](CO)CN1c1ncnc2c1c(-c1ccccc1F)cn2-c1cc(C#N)ccn1`
Solution: < 5.70

Exercise: Output pEC50 of `C[C@@H]1CN(c2ncnc3c2c(-c2ccccc2F)cn3-c2cc(C#N)ccn2)[C@@H](C)CN1C(=O)C1(O)CCC1`
Solution: 6.30 to 7.00

Exercise: Please look at this compound and report its pEC50: `C[C@@H]1CN(c2ncnc3c2c(-c2ccccc2)cn3-c2cc(C#N)ccn2)[C@@H](C)CN1C(=O)CC(O)(C(F)(F)F)C(F)(F)F`
Solution: > 7.00

Exercise: Name the recorded pEC50 of the item `C[C@@H]1CN(c2ncnc3c2c(-c2ccncc2)cn3-c2cc(C#N)ccn2)[C@@H](C)CN1C(=O)C1(O)CC1` in your answer.
Solution: < 5.70

Exercise: Look up and report measured pEC50 for this entry: `C[C@@H]1CN(c2ncnc3c2c(-c2ncco2)cn3-c2cc(C#N)ccn2)[C@@H](C)CN1C(=O)C(C)(C)O`
Solution: < 5.70

Exercise: Please report pEC50 for the following compound: `C[C@@H]1CN(c2ncnc3c2c(-c2ccncc2)cn3-c2cccc(F)c2)[C@@H](C)CN1C(=O)C(C)(C)O`
Solution: < 5.70

Exercise: Quick one: give measured pEC50 for `C[C@@H]1CN(c2ncnc3c2c(-c2ccccc2F)cn3-c2cc(C#N)ccn2)[C@@H](C)CN1C(=O)CC(C)(C)O`
Solution: > 7.00

Exercise: Determine from records and report pEC50 for `C[C@@H]1CN(c2ncnc3c2c(-c2ccno2)cn3-c2cc(C#N)ccn2)[C@@H](C)CN1C(=O)C(C)(C)O`
Solution: < 5.70

Exercise: State its pEC50: `C[C@@H]1CN(c2nccc3c2c(-c2ccncc2)cn3-c2cccc(F)c2)[C@@H](C)CN1C(=O)C(C)(C)O`
Solution: < 5.70

Exercise: Retrieve pEC50 measured for `C[C@@H]1CN(c2ncnc3c2c(-c2ccccc2)cn3-c2cc(C#N)ccn2)[C@@H](C)CN1C(=O)C(C)(C)O` and print it.
Solution: 5.70 to 6.30

Exercise: Name the recorded pEC50 of the compound listed here: `C[C@@H]1CN(c2ncnc3c2c(-c2ccccc2)cn3-c2cc(C#N)ccn2)[C@@H](C)CN1C(=O)CC(C)(C)O`
Solution: 6.30 to 7.00

Exercise: Provide only the value of recorded pEC50 for `C[C@@H]1CN(c2nccc3c2c(-c2ccncc2)cn3-c2cccc(Cl)c2)[C@@H](C)CN1C(=O)C(C)(C)O`
Solution: < 5.70

Exercise: Fill in reported pEC50 for this entry: `Cc1cnccc1-c1cn(-c2cc(C#N)ccn2)c2ncnc(N3C[C@@H](C)N(C(=O)C(C)(C)O)C[C@@H]3C)c12`
Solution: 5.70 to 6.30

Exercise: Item `C[C@@H]1CN(c2ncnc3c2c(C2CC2)cn3-c2cc(C#N)ccn2)[C@@H](C)CN1C(=O)CC(O)(C(F)(F)F)C(F)(F)F` : provide pEC50
Solution: 6.30 to 7.00

Exercise: Fill in reported pEC50 for this entry: `CCOC(C)(C)C(=O)N1C[C@H](C)N(c2ncnc3c2c(N2CCC2)cn3-c2cc(C#N)ccn2)C[C@H]1C`
Solution: 6.30 to 7.00

Exercise: State its pEC50: `C[C@@H]1CN(c2nccc3c2c(-c2ccncc2)cn3-c2cccc(C#N)c2)[C@@H](C)CN1C(=O)C(C)(C)O`
Solution: < 5.70

Exercise: Please give the documented pEC50 of `C[C@@H]1CN(c2ncnc3c2c(-c2ccccc2F)cn3-c2cc(C#N)ccn2)[C@@H](C)CN1C(=O)C1(O)CC1`
Solution: < 5.70
